system: TNFα production in human whole blood; test: Endotoxin-induced TNFα production from human whole blood; assay type: cell-based; details: LPS 100 ng/ml, 3 hours, read-out: HWB TNFα IC50
ENDPOINT NAME: IC50 (µM)
Could you give me the number in µM? Just the number is fine.

Hey, TNFα production in human whole blood data for Cc1cnc(-c2ccnc(C(C)(C)O)n2)cc1-n1c(C)cc(OCc2ncc(F)cc2F)c(Cl)c1=O [Compound 49] : IC50 came out at 0.013

###

Test system: IL-6 production in human whole blood
Assay: Endotoxin-induced IL-6 production from human whole blood
Assay type: cell-based
Conditions: LPS 100 ng/ml, 3 hours, read-out: HWB IL-6 IC50
Description: Human whole blood (HWB; 25-45 ml) was collected from an NSAID-free donor into vacutainer collection tubes containing sodium heparin (10 ml, 158 USP units), pooled and rocked gently before being distributed into each well of a 96-well round bottom tissue culture plate ([…]). Compounds ([…]/well, concentration response) are added and mixed gently for 15-20 seconds using a disposable 96 polypropylene pin tool before the plates are incubated at 37° C./5% CO2 for 1 hour. […]
ENDPOINT NAME: pIC50
// field semantics: pIC50 = negative decimal log of concentration (mol/L)

Lab book: pIC50 of Cc1cnc(-c2ccnc(C(C)(C)O)n2)cc1-n1c(C)cc(OCc2ncc(F)cc2F)c(Cl)c1=O noted as 7.46

###

tested on: IL-1β production in human whole blood; experiment: Endotoxin-induced IL-1β production from human whole blood; format: cell-based; settings: LPS 100 ng/ml, 3 hours, read-out: HWB IL-1β IC50
ENDPOINT NAME: IC50

Please fill in: IC50 reported for Cc1cnc(-c2ccnc(C(C)(C)O)n2)cc1-n1c(C)cc(OCc2ncc(F)cc2F)c(Cl)c1=O = 6 nM
